Target: T1, 4H331-bH
T1 chain: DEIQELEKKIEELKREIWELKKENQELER
Assay: two-hybrid library CCNG1;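 also: natural log of median RNA to DNA barcode read ratio; higher means stronger binding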
quantity: interaction score

Guide cases for interaction score, answers given:
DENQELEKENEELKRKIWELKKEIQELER [4H1257-bH] | -0.435
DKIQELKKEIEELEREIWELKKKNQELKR [4H2576-bH] | 1.97
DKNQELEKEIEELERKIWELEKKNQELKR [4H3112-bH] | 0.991

(1) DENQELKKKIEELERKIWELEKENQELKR [4H1828-bH]
(2) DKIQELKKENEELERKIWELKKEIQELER [4H2729-bH]
Query :: Looking only at measured interaction score, which entry is lower, 1 or 2 ? Record your answer as the label of the chosen record.
Result :: 2
(2: -1.61, 1: -0.37)

(a) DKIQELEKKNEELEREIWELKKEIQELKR [4H2442-bH]
(b) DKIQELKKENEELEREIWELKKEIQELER [4H2697-bH]
Query :: Kindly compare a with b and tell me which has the lower interaction score figure. State your choice using its label.
Result :: a

(A) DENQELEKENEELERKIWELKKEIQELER [4H1193-bH]
(B) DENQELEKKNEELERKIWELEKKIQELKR [4H1446-bH]
(C) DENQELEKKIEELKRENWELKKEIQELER [4H1369-bH]
Query :: Put the binders in ascending order of interaction score. # list labels per requested ordering
Result :: C, A, B
(C: -0.491, A: -0.0475, B: 1.32)
